- test_method_notes: CREB reporter modulators under forskolin, primary screen, cell-based, PC12, CRE-LacZ reporter, forskolin-stimulated (AID 1146);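 further: PC12 cells with 6xCRE LacZ reporter stimulated by forskolin 10 µM; beta-galactosidase reporter signal reflecting CREB driven transcription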
- condition_context: luminescence, 4.5 h, higher = more signal, called active from +8 up or from −8 down
Here, each record is paired with measured z-score data.
Field format: numeric only.

Which z-score value belongs to C=C(CCCC)C(=O)CC[C@@H](OC(C)=O)c1ccc(OCCO)cc1 ?
-0.101

Next up:
Field request: z-score | item: CN1C(=O)C2C=CC(C(O)c3ccc(I)cc3)N(N(c3ccccc3)c3ccccc3)C2C1=O (stereo unspecified)
0.58

* * *

Listed below: composite z-score values for each entry.
- test_method_notes: small-molecule binders of probe aNOTCH3, primary screen, biochemical, small-molecule microarray, 635/667 nm fluorescence (AID 1120);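 further: probe is a biotin-tagged antibody raised against NOTCH3 rather than NOTCH3 protein; score merges spot fluorescence near 667 nm with spot signal to noise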
- condition_context: higher = more signal
// return a plain number; no unit text

Before answering, review these 2 worked examples.
Returns the measured composite z-score for the input compound. Input: O=C1NC(=O)C2C1C=CC(C(O)C(O)CO)N2Nc1ccccn1 (stereo not drawn)
0.0026

Could you share which composite z-score value was measured for CCCCC(=C=CC[C@@H](O)c1ccccc1OCCO)C[C@@H](O)c1ccccn1 ?
-0.0077

Continuing:
Name the recorded composite z-score for Cc1ccc(S(=O)(=O)N2[C@@H](c3ccccc3)C(C(=O)O)=C[C@H]2C(C)(C)C)cc1 .
0.178

* * *

- study_system: Epidermal growth factor receptor (Homo sapiens)
- test_method_notes: EGFR binders on small-molecule microarrays, primary screen, biochemical, small-molecule microarray, 635 nm fluorescence (AID 1104);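 further: score merges 667 nm emission intensity with spot signal to noise over triplicate slides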
- condition_context: EGFR binding, higher = more signal
Assign satisfied to entries whose composite z-score meets or exceeds -0.06; assign not satisfied to the rest.

Assess whether reported composite z-score for COc1ccc(-c2cc3c(c(CCc4ccccc4)n2)[Si](C(C)C)(C(C)C)O[C@H]3c2ccccc2)cn1 sits at -0.06 or higher.
satisfied

Determine whether measured composite z-score meets or exceeds -0.06 for COC(=O)Cn1c(C(=O)N(C)C)cc2c1C[C@H]1CN(C(=O)c3ccccc3)[C@@](Cc3ccccc3)(C(=O)OC)[C@@H]21
satisfied

* * *

- test_method_notes: FRG1 promoter luciferase signal modulators, primary screen, FRG1 inhibition for FSHD, cell-based, C2C12 myotubes, firefly/Renilla luciferase, luminescence (AID 1084)
- condition_context: higher = more signal, called active from +8 up or from −8 down
result_type: z-score
Hey, just send me the number, nothing else.

What value of measured z-score is listed for O=C(NC1CC1)[C@@H]1c2ccccc2C(=O)N(C2CCCCC2)[C@H]1c1ccc(CO)cc1 ?
-0.601

Name the recorded z-score for Cc1ccc(S(=O)(=O)N2[C@@H](c3ccccc3)C(C(=O)O)=C[C@H]2C(C)(C)C)cc1 .
-1.84

// z-score lookup, key: C=CCNC(=O)[C@H]1[C@@H]2C(=O)O[C@@H](c3ccccc3)[C@@H](c3ccccc3)N2[C@@H](c2ccc(OCCO)cc2)[C@]12C(=O)Nc1ccc(C#Cc3ccc(OC)cc3)cc12
0.744

Looking for the measured z-score of CCCNC(=O)[C@@]1(Sc2ccc(C)cc2)CC(=O)N(Cc2cc(C(F)(F)F)cc(C(F)(F)F)c2)[C@@H]1c1ccc(CO)cc1 , can you help?
0.621

Fill blank: measured z-score of the molecule CCCCC(=C=CC[C@@H](O)c1ccccc1OCCO)C[C@@H](O)c1ccccn1 is ____.
-1.14

Entry under review: COc1cc2c(cc1OC)CN(C(=O)[C@@H]1[C@H]3C(=O)O[C@H](c4ccccc4)[C@H](c4ccccc4)N3[C@H](c3ccc(O)cc3)[C@@]13C(=O)Nc1ccc(C#CC4=CCCCC4)cc13)CC2 . Reported z-score?
0.561

Form field: reported z-score of CCCCCCc1nc(-c2ccc(OC)nc2)c(C)c2c1[Si](C(C)C)(C(C)C)OC2
0.329

Fill in the blank: the reported z-score of CCCCC=C[C@@H](NC(=O)C(C)(C)C)c1ccccc1 is ____.
-0.751

Now for a further molecule.
Fill in the blank: the reported z-score of [N-]=[N+]=NCc1ccccc1C[C@@]1(C(N)=O)N=C(c2ccc(OCCCO)cc2)O[C@@H]1c1ccccc1N=[N+]=[N-] is ____.
-0.739

* * *

- study_system: Torsin-1A (Homo sapiens) (UniProt O14656)
- Sequence (O14656 whole entry, looked up): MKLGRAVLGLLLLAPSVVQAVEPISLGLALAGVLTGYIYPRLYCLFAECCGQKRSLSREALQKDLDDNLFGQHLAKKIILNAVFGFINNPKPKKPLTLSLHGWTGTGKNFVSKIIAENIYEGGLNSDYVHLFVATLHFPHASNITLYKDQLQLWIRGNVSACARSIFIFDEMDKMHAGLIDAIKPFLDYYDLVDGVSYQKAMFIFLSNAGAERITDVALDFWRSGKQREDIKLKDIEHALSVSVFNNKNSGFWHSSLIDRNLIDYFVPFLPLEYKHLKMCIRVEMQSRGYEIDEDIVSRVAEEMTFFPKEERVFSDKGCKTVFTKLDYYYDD
- test_method_notes: small-molecule binders of mutant TOR1A in lysate, primary screen, cell lysate, small-molecule microarray, COS7 lysate, 635/667 nm fluorescence (AID 1150);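 further: score pools 667 nm emission and signal to noise measuring lysate protein binding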
- condition_context: COS7 hTOR1A mutant lysate, 635 nm fluorescence, higher = more signal
composite z-score values for the molecules below.

Example entries begin here.
Reported composite z-score, molecule C=CC[C@H](O)c1ccc(O)c(F)c1 : ____
-1.66

Name the reported composite z-score value associated with the molecule C=C(COC)/C(=C/C[C@@H](OC(C)=O)c1cccc(OCCO)c1)c1cnc2ccccc2c1
0.499

I have this molecule here, COc1cccc(C)c1NC(=O)O[C@H]1[C@H](OC(=O)Nc2ccccc2-c2ccccc2)[C@@H](OC(=O)Nc2ccccc2-c2ccccc2)[C@@H](OC)O[C@@H]1CO , and I need its recorded composite z-score.
1.23

State the recorded composite z-score for this entry: COCCOC(=O)N1C(=O)[C@@]2(c3cc(C#CCNC(N)=O)ccc31)[C@H](C(=O)Nc1nc3ccccc3s1)[C@H]1C(=O)O[C@H](c3ccccc3)[C@H](c3ccccc3)N1[C@@H]2c1ccc(O)cc1
-0.023

Continuing:
# input molecule: COCCOC(=O)N1C(=O)[C@@]2(c3cc(C#CCC(C(=O)OC)C(=O)OC)ccc31)[C@H](C(N)=O)[C@H]1C(=O)O[C@H](c3ccccc3)[C@H](c3ccccc3)N1[C@@H]2c1ccccc1OCCO ; wanted: its composite z-score
0.212

Could you tell me which composite z-score is on file for COc1c(C)cc(-c2cc3c(c(CCc4ccccc4)n2)[Si](C(C)C)(C(C)C)O[C@H]3c2ccccc2)cc1C ?
-0.554

Could you tell me which composite z-score is on file for COc1ccc([Si](C)(C)[C@@H]2[C@@H](CC(=O)N3Cc4ccccc4C[C@H]3CO)O[C@]3(C(=O)N(Cc4ccc(I)cc4)c4ccccc43)[C@H]2C)cc1 ?
0.204

* * *

We begin with a simple list: items and their reported z-score.
- test_method_notes: inhibitors of hydroxyurea-induced Chk1 phosphorylation, primary screen, imaging, HeLa, phospho-Chk1 nuclear intensity (AID 1187); further: test concentration not given here
- condition_context: hydroxyurea-induced phospho-Chk1 immunofluorescence imaging, higher = more signal
Activity calls are given as the source filed them. The rule behind the calls is not given here.

Solved cases (3 shown):
Find the recorded z-score belonging to CCOC(=O)C=C1C[C@@H](c2cccc([N+](=O)[O-])c2)O[C@@H](c2cccc([N+](=O)[O-])c2)O1 and report it.
-0.443 (inactive)

I would be grateful if you could share the reported z-score for COc1ccc([Si](C)(C)[C@H]2[C@H](CC(=O)N(CCO)Cc3ccccc3)O[C@@]3(C(=O)N(c4ccccc4)c4ccccc43)[C@@H]2C)cc1 .
-0.763 (inactive)

State the recorded z-score for this entry: Cc1ccc(N2C(=O)c3ccccc3[C@@H](C(=O)NCCN3CCOCC3)[C@@H]2c2ccc(CO)cc2)nc1
0.274 (inactive)

Please look at the following compound next.
Query: z-score; subject: CC(C)(C)OC(=O)CC[C@@]1(C(N)=O)N=C(c2ccc(OCCCO)cc2)O[C@@H]1c1ccccc1CN=[N+]=[N-]
0.317 (inactive)

* * *

- study_system: NADPH oxidase 2 (Homo sapiens)
- test_method_notes: NOX2-dependent H2O2 signal modulators, primary screen, NOX inhibitor project, cell-based, HEK293-NOX2, PMA-stimulated, Amplex Red fluorescence (AID 1159); further: test concentration not given here
- condition_context: 45 min, higher = more signal, called active from +8 up or from −8 down
Active and inactive are the calls of the source.
result_type: z-score

Some compounds with recorded z-score:
Form: Entry = COc1ccc([Si](C)(C)[C@@H]2[C@@H](CC(=O)N3CCC[C@H]3CO)O[C@]3(C(=O)N(Cc4cccc(N5C(=O)c6cccc7cccc5c67)c4)c4ccccc43)[C@H]2C)cc1 | System = NADPH oxidase 2 (Homo sapiens) | z-score = ____
2.72 (inactive)

API: value(readout= z-score, system= NADPH oxidase 2 (Homo sapiens), query= CN1C(=O)C2C=CC(C(O)COCc3ccccc3)N(Nc3ccc([N+](=O)[O-])cc3[N+](=O)[O-])C2C1=O (centres undefined) )
0.223 (inactive)

Record lookup: for NADPH oxidase 2 (Homo sapiens), what z-score belongs to CC(=O)NCCCC[C@@H]1NC(=O)[C@H]2C[C@@H](C(=O)NCCCCCN)[C@@H](c3ccc(O)cc3)N2C1=O ?
0.178 (inactive)

Here's the next entry for you.
Look up z-score with NADPH oxidase 2 (Homo sapiens) for this compound: COC(=O)[C@@]1(Cc2ccc(F)cc2)[C@H]2c3cc(C(=O)N(C)C)n(Cc4cccc5ccccc45)c3C[C@H]2CN1C(=O)c1ccccc1
0.105 (inactive)
